B1: Homeobox expressed in ES cells 1, residues 110 to 165; numbered along this chain, Q9UBX0 (parent)
chain: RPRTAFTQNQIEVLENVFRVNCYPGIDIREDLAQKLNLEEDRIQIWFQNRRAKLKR

- Variants of: B1
- protocol-description: abundance fitness (aPCA) (normalised: wild type 0, dead -1); higher = more abundant; growth selection in yeast, the domain comes from the species named
- applied-conditions: Homo sapiens
Returns yes (1) if the recorded abundance fitness is greater than or equal to -0.4, and no (0) otherwise.

[[record]]
variant_code = "L14R"
classification = "no (0)"

[[record]]
variant_code = "F6R"
classification = "no (0)"

[[record]]
variant_code = "I26G"
classification = "yes (1)"

[[record]]
variant_code = "L32E"
classification = "no (0)"

[[record]]
variant_code = "V20N"
classification = "yes (1)"

[[record]]
variant_code = "T4S"
classification = "yes (1)"

[[record]]
variant_code = "R29M"
classification = "yes (1)"

[[record]]
variant_code = "N9K"
classification = "yes (1)"

[[record]]
variant_code = "T7C"
classification = "no (0)"

[[record]]
variant_code = "E15R"
classification = "no (0)"

[[record]]
variant_code = "N21C"
classification = "no (0)"

[[record]]
variant_code = "N16E"
classification = "yes (1)"

[[record]]
variant_code = "T7V"
classification = "no (0)"

[[record]]
variant_code = "P24C"
classification = "no (0)"

[[record]]
variant_code = "N9G"
classification = "yes (1)"

[[record]]
variant_code = "Y23S"
classification = "yes (1)"

[[record]]
variant_code = "R3A"
classification = "yes (1)"

[[record]]
variant_code = "V17P"
classification = "no (0)"

[[record]]
variant_code = "T4M"
classification = "yes (1)"

[[record]]
variant_code = "D27M"
classification = "yes (1)"

[[record]]
variant_code = "R3N"
classification = "yes (1)"

